- System: MS2 coat protein
- assay details: apparent KD of MS2 coat protein; designed switch direction (-1 OFF switch, 1 ON switch): -1; higher = weaker reporter binding
- condition parameters: input ligand: FMN 200 uM
recorded endpoint: apparent KD of MS2 coat protein (nM)
Number only, in nM; omit the unit.

// worked examples, apparent KD of MS2 coat protein included
>>> value_observed("UAUUAGCAAGCGAGAUCUCACAUGAGGAUCACCCAUGUGCUCGUCUUAUAAGGUACUGUGACGAGAGUCACGGUACC [Mat - Sensor, turn-off var - Eli Mod - D37] (Eterna round: R97, puzzle: Sensor, turn-off variant 1)")
13
>>> value_observed("GGAAUGAGAGAGGAUAUGGGAGGGAGGACCGGACCAGAAGGCUCGACAUGAGGAUCACCCAUGUGGAGAUCCUC [AK-MS2ROC-r4-exclusion6-6.11] (Eterna round: R97, puzzle: Exclusion 6)")
236
>>> value_observed("GAGUUAACAUGAGGAAUAUACAUGAGGAUCACCCAUGUUAACAAAUUUUUUGCUCGUCUUAUAACAACAAUUAACUC [Alarm 4 - Jieux - Sensor, turn-off variant 1] (Eterna round: R97, puzzle: Sensor, turn-off variant 1)")
434

For the next question, use this sequence.
Ask | Please tell me: apparent KD of MS2 coat protein of AUCGUGUGAGGAUAUCGAUGUUGGACGUCUAGGUCUAAGCGCGAGAAGGCACAUGAGGAUCACCCAUGUAAUGG [jl-ex4-4.27 ViennaUCT mod] (Eterna round: R97, puzzle: Exclusion 4) , system MS2 coat protein?
Reply | 249

====

- Tested on: K4 kissing-loop RNA reporter;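 note: bound reporter read as fluorescence of individual clusters on recovered sequencing chips by microscopy, with normalized cluster intensities fitted with a binding model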
- assay details: apparent KD of K4 kissing-loop reporter; higher = weaker reporter binding
- condition parameters: Eterna round: R107; input ligand: theophylline 20 uM
recorded endpoint: apparent KD of K4 kissing-loop reporter (µM)
Just the number in µM, nothing appended.

As a guide, the following entries are already answered.
>>> value_observed("AGCUCAGAGUGACUCGAUAAGAGUCACAAACGAGGACCGGUACGGCCGCCACUCGAAAUAACGAGAGUGAUGUUCUCACUGAGCA [FiskerMod 11 - Jieux - Same State Tryptophan A]")
0.808
>>> value_observed("AGAGGAAAUAGAAGGAGCGGCGCCAGUGAUGUUGGAUGCCGCGGGUGAAUCAGGUCAUAGUGCCAGGUAGGUCGCUAUUUCAGCG [Larebeve]")
0.161
>>> value_observed("ACGUUCGGAACGGCCGCCACUAUGGGCAGUGAUGUUGCCCAUAACCGGUUUUGCGUCAGAUCCCUUAGGACCGGGUUCUGGUAUA [Soonlesoso]")
0.0658

Ask | Param item = UGUACAUGUCACCGAGUGAUGUUCGACGAUACCAGACUCGAUAGAGUCCCUUGGCAGCGUAACGCAUGCCAAAGUGGCAUGUACU [#SwitchBubble 10 #K4Early] ; retrieve measured apparent KD of K4 kissing-loop reporter.
Reply | 0.496

Ask | Sample GCGAGUUUGCAAGGAUAUCGACCGUCGUACGACCAGUGAUGUUGGGAGUACUUUCAAAAUCGAUUUCGAGAAGGUGCUGGCAUCA [theeternabot_sameState_KL_FMN_B_12] — what was its apparent KD of K4 kissing-loop reporter?
Reply | 0.248

Ask | Using the record for AGUGAACGAGCGGCCGCCACUAACUGAGUGAUGUUCGUGAGUAGUGCUGUUCUCAUGAUUGUUUUUAGGACCGGGUUCGAUGUUG [ttbjmullin] , report its apparent KD of K4 kissing-loop reporter.
Reply | 0.431

Ask | Tell me the measured apparent KD of K4 kissing-loop reporter of AACAGCAAUGCGGCCGCCACUUCGAGUUCAGUGAUGUUGAAAGAAUUAAAUAAAGAUCCCAAGAGGAGGACCGGGCAGUGCUGUU [Default title] , please.
Reply | 0.621

Ask | Which apparent KD of K4 kissing-loop reporter is reported for this sequence? AUUUGUUUAUGUGAUACCAGACUUUGCAGUGAUGUUGCAUUUAUUUUAGAAUUUUAUUUAGUCCCUUGGCAGCACUAUGUAUUUA [JR_SSTheophyB_Sub007]
Reply | 0.0925

Ask | GET /values?readout=apparent KD of K4 kissing-loop reporter&item= GAGAUAGAGGCGGCCGCCACUAGUGAUGUUGGUGAUGUUAGAUAGAGAAUAGAACGGGUACUCCCUAGGACCGGGCCAGAUGGAG [#04 K4 Tryptophan B Exclusion]
Reply | 0.0494

====

Attribute: apparent KD of MS2 coat protein
- Test system: MS2 coat protein
- assay details: apparent KD of MS2 coat protein; designed switch direction (-1 OFF switch, 1 ON switch): -1; higher = weaker reporter binding
- condition parameters: Eterna round: R95; input ligand: none
Return type: number; implicit unit nM.

>>> value_observed("UUUAAUUUUUUUUUUUUACAAGCUUUUUGCUCGUCUUAUACAUGAGGAUCACCCAUGUGAGUGAGGGAUAAAUUAUC [JMF 41] (puzzle: Sensor v3, turn-off variant 2)")
16.7
>>> value_observed("GCACGCAAAGGAUAUCGGAAAGAAAACAUGAGGAUCACCCAUGUAUAUAUCAAAUGGGUGCGAGAAGGUUGAGUGA [Xeleonge] (puzzle: Exclusion 5)")
94
>>> value_observed("CUGGUCCGAGGAUAUAUUAUGUGAUACAUGAGGAUCACCCAUGUUAUAUGAUGGAUGUUAGUAGAAGGCGGACUAC [salish99_ex5_r3_001] (puzzle: Exclusion 5)")
101

Alright, here's another sequence for you.
Ask | Looking for the measured apparent KD of MS2 coat protein of UUCCAGACAGGAUAUCUAGUGAGCAACAUGAGGAUCACCCAUGUGACCAUCACCGCCCGCAGAGAAGGGUCAACAG [Inbilaus] (puzzle: Exclusion 5) , can you help?
Reply | 40.2

====

- System: MS2 coat protein
- assay details: apparent KD of MS2 coat protein; designed switch direction (-1 OFF switch, 1 ON switch): -1; higher = weaker reporter binding
- condition parameters: input ligand: none
recorded endpoint: apparent KD of MS2 coat protein (nM)
API: value field is a number in nM; no unit string.

Solved cases below.
>>> value_observed("CCUUGACAUGAGGAUCACCCAUGUGAGGAUAUCCUGCGAGGAUCAAAAGAUCCUCGUGGGAGAAGGCAUAUGAA [Omei Ex1 A7] (Eterna round: R97, puzzle: Exclusion 1)")
16.7
>>> value_observed("GCUAUGACUGUGAGGAUAUGGACCGGGCUCUCGGAUUAGAAGGCACAUGAGGAUCACCCAUGUGAUCACGUACU [Eternabot (L2) Solution 87] (Eterna round: R97, puzzle: Brourd's mod of Exclusion 4)")
27.5

Turning to the following sequence.
Ask | GET /values?readout=apparent KD of MS2 coat protein&item= GUAUUUUGAGGAUAUACAUGAGGAUCACCCAUGUGUCGUAGCGCCAGCCUUAAUACGUGUAGAAGGCAGAAUGU [Eternabot (L1) Solution 75] (Eterna round: R97, puzzle: Exclusion 3)
Reply | 34

====

- Test system: MS2 coat protein
- assay details: apparent KD of MS2 coat protein; designed switch direction (-1 OFF switch, 1 ON switch): -1; higher = weaker reporter binding
- condition parameters: Eterna round: R95; input ligand: microRNA oligo, concentration not stated
recorded endpoint: apparent KD of MS2 coat protein (nM)
All answers are understood in nM, so give the number only.

The cases that follow already have their apparent KD of MS2 coat protein on record.
>>> value_observed("GAGAAGGUAGGAUAUACGAAUAAAAAGGGUAGAAUAAGAACACAUGAGGAUCACCCAUGUAGAAGGACCAAGAG [Mat - Exclusion 2 - Mod of my Tesla design - D21] (puzzle: Exclusion 2)")
18.4
>>> value_observed("GGUUGGCGAGGAUAUACAUGAGGAUCACCCAUGUGAGAGAAAAACGUGAGGAAGAAAAGUAGAAGGCGCUGACG [salish99_ex3_r3_025] (puzzle: Exclusion 3)")
81.6
>>> value_observed("AAAAGCUCAGUCAGGAUAUGCAUUUGCACCGGCGAGCAGAAGGGACAUGAGGAUCACCCAUGUACGCGGCAGGG [Laaraor] (puzzle: Brourd's mod of Exclusion 4)")
37.1
>>> value_observed("AAGUACCGUCACGAAAGUGAUGGUACAACAAGCAAAUGUACAUGAGGAUCACCCAUGUCCUCAAUUGCUCGUCUUAU [Sensor 3 - 57] (puzzle: Sensor v3, turn-off variant 2)")
176
>>> value_observed("GCCGAUUAAGUGAGGAUAUACCUAUGGAAACAUAGGUAGAAGGCACAUGAGGAUCACCCAUGUUCCUAUACGGC [Fiskers BMX 4 - 5] (puzzle: Brourd's mod of Exclusion 4)")
12.3

Ask | Given AUGUGGGUAAGAAGGUGAAGAUAGAGCGUACGUUAUGGAACAUGAGGAUCACCCAUGUAGCUUUUUGCUCGUCUUAU [JR_SV3TOV2_Sub033] (puzzle: Sensor v3, turn-off variant 2) , state its recorded apparent KD of MS2 coat protein.
Reply | 61.8

Ask | Item under review: GCCCAGCUAGGAUAUCGCACUGCAGACAUGAGGAUCACCCAUGUGAUGAGGUCUGAAUCCCGAGAAGGAGCAUGGA [Enlain] (puzzle: Exclusion 5) . Reported apparent KD of MS2 coat protein?
Reply | 15.8

Ask | Which apparent KD of MS2 coat protein reading was recorded for the sequence CCGGAAUUGGAGGAUAUAGGAGUCGAUAGACACCUAGAAGGUCAGACAUGAGGAUCACCCAUGUGUCCUACCGG [Fiskers Ex 6 - 87] (puzzle: Exclusion 6) ?
Reply | 18.3
